Test system: MV4:11 human cancer cell lines
assay: Cellular viability / anti-proliferative assay, CellTiter-Glo, 5 day protocol
Type: cell-based
condition.description: Homo sapiens, MV4-11, 120 h, MV4:11 cells; 5 day incubation; CellTiter-Glo; mean of at least two replicates; read-out: GI50 on cellular proliferation of MV4:11 human cancer cell lines
Protocol: Cellular Viability of Human Tumor Cell Lines Anti-proliferative activity using MLL-harboring cell lines. […] After a set incubation period, 5 day protocol, the viability of cells in each well is assessed using the CellTiter-Glo assay (Promega), read on a 96 Microplane Luminometer (Cytation 3, BioTek). Serial dilutions of each cell type are performed in all assays to generate standard curves and the final densities of cells are determined within the dynamic range of the instrument. […]
measurement.label: GI50

Would you please look over these solved cases?
[[record]]
molecule = "CCc1ccc2cncc(N3CCc4c(cc(Cn5ccnc5)cc4-c4cn(C)nc4C(F)(F)F)C3=O)c2c1 [Example 89]"
measured_result = "22 nM"

[[record]]
molecule = "CCc1cc(C(=O)NCCNC(=O)c2cscn2)c2nccc(N3CCc4c(cc(Cn5ccnc5)cc4-c4cn(C)nc4C(F)(F)F)C3=O)c2c1 [Example 216]"
measured_result = "< 20 nM"


Shift focus to the following entry.
In one line, give reported GI50 of the entry CCc1cc(N2CCN(CCOC)CC2)c2nccc(N3CCc4c(cc(Cn5ccnc5)cc4-c4cn(C)nc4C(F)(F)F)C3=O)c2c1 [Example 210] .
< 20 nM

###

Test system: MV4:11 human cancer cell lines
assay: Cellular viability / anti-proliferative assay, CellTiter-Glo, 5 day protocol
Type: cell-based
condition.description: Homo sapiens, MV4-11, 120 h, MV4:11 cells; 5 day incubation; CellTiter-Glo; mean of at least two replicates; read-out: GI50 on cellular proliferation of MV4:11 human cancer cell lines
Here the recorded GI50 is given for each entry.

Known results for compounds:
[[record]]
compound = "CCc1cc(C(=O)NC2CN(C(=O)c3cscn3)C2)c2nccc(N3CCc4c(cc(Cn5ccnc5)cc4-c4cn(C)nc4C(F)(F)F)C3=O)c2c1 [Example 228]"
target_desc = "MV4:11 human cancer cell lines"
measurement_label = "GI50"
measured_result = "< 20 nM"

[[record]]
compound = "CCc1cc2c(N3CCc4c(cc(Cn5ccnc5)cc4-c4cn(C)nc4C(F)(F)F)C3=O)ccnc2c(OC)n1 [Example 207]"
target_desc = "MV4:11 human cancer cell lines"
measurement_label = "GI50"
measured_result = "< 20 nM"

[[record]]
compound = "CCc1cc(C(=O)NCCNC(=O)c2ccncc2)c2nccc(N3CCc4c(cc(Cn5ccnc5)cc4-c4cn(C)nc4C(F)(F)F)C3=O)c2c1 [Example 213]"
target_desc = "MV4:11 human cancer cell lines"
measurement_label = "GI50"
measured_result = "< 20 nM"

[[record]]
compound = "CCc1cc(N2CCN3CCOC[C@H]3C2)c2nc(C)cc(N3CCc4c(cc(Cn5ccnc5)cc4-c4cn(C)nc4C(F)(F)F)C3=O)c2c1 [Example 124]"
target_desc = "MV4:11 human cancer cell lines"
measurement_label = "GI50"
measured_result = "< 20 nM"

[[record]]
compound = "CCc1cc(N(C)C)c2nccc(N3CCc4c(cc(Cn5ccnc5)cc4-c4cn(C)nc4C(F)(F)F)C3=O)c2c1 [Example 35]"
target_desc = "MV4:11 human cancer cell lines"
measurement_label = "GI50"
measured_result = "76 nM"


Below: the item to evaluate.
Name the recorded GI50 of the compound listed here: CCc1cc(C(=O)Nc2ccncc2)c2nccc(N3CCc4c(cc(Cn5ccnc5)cc4-c4cn(C)nc4C(F)(F)F)C3=O)c2c1 [Example 158]
31 nM

###

GI50: recorded values
Test system: MV4:11 human cancer cell lines
assay: Cellular viability / anti-proliferative assay, CellTiter-Glo, 5 day protocol
Format: cell-based
condition.description: Homo sapiens, MV4-11, 120 h, MV4:11 cells; 5 day incubation; CellTiter-Glo; mean of at least two replicates; read-out: GI50 on cellular proliferation of MV4:11 human cancer cell lines
Procedure: Cellular Viability of Human Tumor Cell Lines Anti-proliferative activity using MLL-harboring cell lines. […] After a set incubation period, 5 day protocol, the viability of cells in each well is assessed using the CellTiter-Glo assay (Promega), read on a 96 Microplane Luminometer (Cytation 3, BioTek). Serial dilutions of each cell type are performed in all assays to generate standard curves and the final densities of cells are determined within the dynamic range of the instrument. […]

The examples below pair each entry with its known result.
[[record]]
structure_as_smiles = "COc1cc(N2CCN(C)CC2)c2cncc(N3CCc4c(cc(Cn5ccnc5)cc4-c4cn(C)nc4C(F)(F)F)C3=O)c2c1"
target_desc = "MV4:11 human cancer cell lines"
measured_result = "< 20 nM"

[[record]]
structure_as_smiles = "COc1cc(N2CCN(C)C(=O)C2)c2nccc(N3CCc4c(cc(Cn5ccnc5)cc4-c4cn(C)nc4C(F)(F)F)C3=O)c2c1"
target_desc = "MV4:11 human cancer cell lines"
measured_result = "< 20 nM"

[[record]]
structure_as_smiles = "CCc1cnc2cccc(N3CCc4c(cc(Cn5ccnc5)cc4-c4cn(C)nc4C(F)(F)F)C3=O)c2c1"
target_desc = "MV4:11 human cancer cell lines"
measured_result = "21 nM"

[[record]]
structure_as_smiles = "COc1cc(CN2CCN(C3CCOCC3)CC2)c2nccc(N3CCc4c(cc(Cn5ccnc5)cc4-c4cn(C)nc4C(F)(F)F)C3=O)c2c1"
target_desc = "MV4:11 human cancer cell lines"
measured_result = "< 20 nM"

[[record]]
structure_as_smiles = "COc1cnc2c(c1)c(N1CCc3c(cc(Cn4ccnc4C)cc3-c3cn(C)nc3C(F)(F)F)C1=O)cn2C"
target_desc = "MV4:11 human cancer cell lines"
measured_result = "< 20 nM"


// fetch GI50 for `COc1cc(-c2nnn[nH]2)c2nc(C)cc(N3CCc4c(cc(Cn5ccnc5)cc4-c4cn(C)nc4C(F)(F)F)C3=O)c2c1` ; system: MV4:11 human cancer cell lines
> 10000 nM

Quote GI50 with test system MV4:11 human cancer cell lines for `COc1ccc2ncnc(N3CCc4c(cc(Cn5ccnc5)cc4-c4cn(C)nc4C(F)(F)F)C3=O)c2c1`
70 nM

###

Test system: MV4:11 human cancer cell lines
assay: Cellular viability / anti-proliferative assay, CellTiter-Glo, 5 day protocol
Format: cell-based
condition.description: Homo sapiens, MV4-11, 120 h, MV4:11 cells; 5 day incubation; CellTiter-Glo; mean of at least two replicates; read-out: GI50 on cellular proliferation of MV4:11 human cancer cell lines
measurement.label: log10 of GI50 (log10 of the value in µM)
Log10 applied to GI50; unit prior to transform: µM.

Consider the reported log10 of GI50 for these compounds:
[[record]]
structure_as_smiles = "Cc1nccn1Cc1cc2c(c(-c3cn(C)nc3C(F)(F)F)c1)CCN([C@H]1CCc3ccccc31)C2=O"
measured_result = -0.21

[[record]]
structure_as_smiles = "COc1cc(C(=O)Nc2ncco2)c2nc(C)cc(N3CCc4c(cc(Cn5ccnc5)cc4-c4cn(C)nc4C(F)(F)F)C3=O)c2c1"
measured_result = -1.55

[[record]]
structure_as_smiles = "COc1cc(C(=O)N(C)C)c2nccc(N3CCc4c(cc(Cn5ccnc5)cc4-c4cn(C)nc4C(F)(F)F)C3=O)c2c1"
measured_result = -0.49

[[record]]
structure_as_smiles = "Cc1cc(N2CCN(C)C(=O)C2)c2cncc(N3CCc4c(cc(Cn5ccnc5)cc4-c4cn(C)nc4C(F)(F)F)C3=O)c2c1"
measured_result = -1.64


Give log10 of GI50 for `CCc1cc(C(=O)NC2CCCC2)c2nccc(N3CCc4c(cc(Cn5ccnc5)cc4-c4cn(C)nc4C(F)(F)F)C3=O)c2c1`
-0.81

###

GI50 values for the compounds below.
System: MV4:11 human cancer cell lines
assay: Cellular viability / anti-proliferative assay, CellTiter-Glo, 5 day protocol
Assay type: cell-based
condition.description: Homo sapiens, MV4-11, 120 h, MV4:11 cells; 5 day incubation; CellTiter-Glo; mean of at least two replicates; read-out: GI50 on cellular proliferation of MV4:11 human cancer cell lines
Dear colleague, please return just the value in nM, with no unit written.

[[record]]
structure_as_smiles = "COc1cnc2cccc(N3CCc4c(cc(Cn5ccnc5C)cc4-c4cn(C)nc4C(F)(F)F)C3=O)c2c1"
target_desc = "MV4:11 human cancer cell lines"
measured_result = 20

[[record]]
structure_as_smiles = "COc1ccc2nc(C)cc(N3CCc4c(cc(Cn5ccnc5)cc4-c4cn(C)nc4C(F)(F)F)C3=O)c2c1"
target_desc = "MV4:11 human cancer cell lines"
measured_result = 44


# evaluate next
Provide only the value of recorded GI50 for `CCc1ccc2c(N3CCc4c(cc(Cn5ccnc5)cc4-c4cn(C)nc4C(F)(F)F)C3=O)cccc2n1`
452

###

Tested on: MV4:11 human cancer cell lines
assay: Cellular viability / anti-proliferative assay, CellTiter-Glo, 5 day protocol
Type: cell-based
condition.description: Homo sapiens, MV4-11, 120 h, MV4:11 cells; 5 day incubation; CellTiter-Glo; mean of at least two replicates; read-out: GI50 on cellular proliferation of MV4:11 human cancer cell lines
measurement.label: GI50 (nM)
Just the number please, in nM, no unit attached.

These recorded examples may help you get a feel for the data.
[[record]]
structure_as_smiles = "CCOC(=O)c1cc(OC)cc2c(N3CCc4c(cc(Cn5ccnc5)cc4-c4cn(C)nc4C(F)(F)F)C3=O)cc(C)nc12"
measured_result = 23

[[record]]
structure_as_smiles = "COc1cnc2c(c1)c(N1CCc3c(cc(Cn4ccnc4)cc3-c3cn(C)nc3C(F)(F)F)C1=O)cn2C"
measured_result = 45


Continue with the compound presented below.
Look up GI50 of `COCCNC(=O)c1cc(OC)cc2c(N3CCc4c(cc(Cn5ccnc5)cc4-c4cn(C)nc4C(F)(F)F)C3=O)ccnc12` and report it.
34
